tested_target: human CCR8 (human, UniProt P51685 1-355)
assay: cell-based or functional assay
Label scheme for hCCL1 (100 nM) residual response, Protocol #3, mAb 0.05 µg/mL: lower than 80% is NO, 80% and above is YES.

Worked examples follow.
1) 3-11 (antibody, V domains shown) VH: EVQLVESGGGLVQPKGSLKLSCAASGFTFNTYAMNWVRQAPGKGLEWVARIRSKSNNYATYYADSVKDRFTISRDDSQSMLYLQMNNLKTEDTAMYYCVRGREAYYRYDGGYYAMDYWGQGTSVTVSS VL: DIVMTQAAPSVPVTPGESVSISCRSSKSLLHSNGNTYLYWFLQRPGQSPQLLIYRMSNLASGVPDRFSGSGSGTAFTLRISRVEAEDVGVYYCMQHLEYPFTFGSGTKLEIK :: NO
2) 3-48 (antibody, V domains shown) VH: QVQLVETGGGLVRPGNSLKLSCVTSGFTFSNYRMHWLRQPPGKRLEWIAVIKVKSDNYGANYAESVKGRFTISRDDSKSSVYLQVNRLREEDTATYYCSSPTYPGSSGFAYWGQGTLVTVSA VL: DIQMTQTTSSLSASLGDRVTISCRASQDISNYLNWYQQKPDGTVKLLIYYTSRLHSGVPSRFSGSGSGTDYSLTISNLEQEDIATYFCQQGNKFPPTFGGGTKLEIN :: YES
3) 3-29 (antibody, V domains shown) VH: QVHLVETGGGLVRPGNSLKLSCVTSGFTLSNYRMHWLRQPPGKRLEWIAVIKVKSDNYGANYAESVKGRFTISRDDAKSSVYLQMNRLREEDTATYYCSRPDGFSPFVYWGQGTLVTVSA VL: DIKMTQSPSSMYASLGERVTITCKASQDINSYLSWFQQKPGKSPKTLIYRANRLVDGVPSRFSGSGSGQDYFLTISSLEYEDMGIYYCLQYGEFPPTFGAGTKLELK :: NO
4) 3-53 (antibody, V domains shown) VH: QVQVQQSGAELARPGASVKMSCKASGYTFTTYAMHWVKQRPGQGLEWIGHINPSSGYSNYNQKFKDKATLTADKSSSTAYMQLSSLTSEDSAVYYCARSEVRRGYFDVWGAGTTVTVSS VL: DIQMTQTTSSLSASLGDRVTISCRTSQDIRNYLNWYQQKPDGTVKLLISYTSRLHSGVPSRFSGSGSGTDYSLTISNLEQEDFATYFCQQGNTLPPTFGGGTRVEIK :: NO

Please find the next binder below.
Is hCCL1 (100 nM) residual response, Protocol #3, mAb 0.05 µg/mL for 3-52 (antibody, V domains shown) VH: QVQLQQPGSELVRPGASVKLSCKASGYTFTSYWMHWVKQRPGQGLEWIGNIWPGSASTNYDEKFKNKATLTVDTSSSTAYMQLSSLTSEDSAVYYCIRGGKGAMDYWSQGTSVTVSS VL: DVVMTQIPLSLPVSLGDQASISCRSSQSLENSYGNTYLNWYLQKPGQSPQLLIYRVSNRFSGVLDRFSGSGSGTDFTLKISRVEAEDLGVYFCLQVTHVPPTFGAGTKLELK at or above 80%?
YES
